Recorded values, source patent US10172858B2.

Lab note: pIC50 readings collected with PI3K β (Homo sapiens (Human)) for the following compounds.
Sequence (P42338 whole entry, species assumed): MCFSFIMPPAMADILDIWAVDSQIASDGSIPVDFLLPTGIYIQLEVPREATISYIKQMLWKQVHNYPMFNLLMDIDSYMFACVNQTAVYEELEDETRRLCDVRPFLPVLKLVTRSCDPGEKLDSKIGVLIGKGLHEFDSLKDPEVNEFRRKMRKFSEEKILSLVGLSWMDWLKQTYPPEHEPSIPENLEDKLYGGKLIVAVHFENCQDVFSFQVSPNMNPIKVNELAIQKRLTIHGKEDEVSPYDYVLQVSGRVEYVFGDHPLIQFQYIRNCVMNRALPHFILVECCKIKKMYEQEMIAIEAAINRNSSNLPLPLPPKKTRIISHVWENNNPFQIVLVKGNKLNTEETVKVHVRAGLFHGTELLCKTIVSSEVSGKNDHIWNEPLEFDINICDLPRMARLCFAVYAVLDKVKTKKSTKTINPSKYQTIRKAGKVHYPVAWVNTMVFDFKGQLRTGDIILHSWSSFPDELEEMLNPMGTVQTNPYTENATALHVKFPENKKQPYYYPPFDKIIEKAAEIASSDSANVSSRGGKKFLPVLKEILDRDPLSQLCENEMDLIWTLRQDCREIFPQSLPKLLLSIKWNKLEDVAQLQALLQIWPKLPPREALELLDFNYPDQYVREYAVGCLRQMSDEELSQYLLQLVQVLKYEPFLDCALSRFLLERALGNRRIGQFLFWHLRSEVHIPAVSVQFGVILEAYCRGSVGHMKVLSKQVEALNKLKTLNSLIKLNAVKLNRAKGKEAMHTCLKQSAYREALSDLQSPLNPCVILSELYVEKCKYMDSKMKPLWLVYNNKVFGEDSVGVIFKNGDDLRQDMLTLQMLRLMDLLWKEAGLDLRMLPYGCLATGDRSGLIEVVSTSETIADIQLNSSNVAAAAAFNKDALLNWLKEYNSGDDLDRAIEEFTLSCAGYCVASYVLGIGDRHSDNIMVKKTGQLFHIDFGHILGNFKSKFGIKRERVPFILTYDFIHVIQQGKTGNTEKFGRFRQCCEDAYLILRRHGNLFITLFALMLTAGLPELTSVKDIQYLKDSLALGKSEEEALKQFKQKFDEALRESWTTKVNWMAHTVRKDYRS
Sequence (P27986 whole entry partner, species assumed): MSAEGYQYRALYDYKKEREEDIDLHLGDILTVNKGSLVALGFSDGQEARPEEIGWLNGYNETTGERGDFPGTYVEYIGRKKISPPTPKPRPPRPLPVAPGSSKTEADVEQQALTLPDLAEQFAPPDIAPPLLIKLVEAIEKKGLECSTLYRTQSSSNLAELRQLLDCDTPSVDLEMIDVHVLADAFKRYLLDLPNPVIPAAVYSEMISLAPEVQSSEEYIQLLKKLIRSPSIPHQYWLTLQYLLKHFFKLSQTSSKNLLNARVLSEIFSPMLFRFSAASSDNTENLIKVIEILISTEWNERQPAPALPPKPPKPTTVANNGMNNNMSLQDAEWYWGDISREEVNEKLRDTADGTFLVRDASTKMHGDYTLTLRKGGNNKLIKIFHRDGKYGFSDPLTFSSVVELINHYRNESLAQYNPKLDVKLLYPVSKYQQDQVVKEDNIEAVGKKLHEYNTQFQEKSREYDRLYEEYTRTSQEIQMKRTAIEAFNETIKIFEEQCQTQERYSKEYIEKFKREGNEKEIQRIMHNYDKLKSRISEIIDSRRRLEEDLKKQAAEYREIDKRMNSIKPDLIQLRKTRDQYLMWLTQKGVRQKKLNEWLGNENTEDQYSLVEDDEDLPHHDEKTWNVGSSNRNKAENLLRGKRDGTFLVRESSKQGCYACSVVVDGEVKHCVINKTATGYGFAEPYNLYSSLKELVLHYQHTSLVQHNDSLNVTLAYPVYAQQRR
pIC50: −log10 of the molar value.

// query Complete the entry with pIC50 for Nc1ncnc2c1c(-c1cc3cc(O)ccc3[nH]1)nn2C1CCOCC1 [Compound 42]
// result < 6.30

// query Complete the entry with pIC50 for CC(=O)N1CCC(n2nc(-c3cc4c(Cl)ccc(O)c4[nH]3)c3c(N)ncnc32)CC1 [Compound 69]
// result < 6.30

// query Complete the entry with pIC50 for CC(C)N1CCC(n2nc(-c3cc4cc(O)cc(Cl)c4[nH]3)c3c(N)ncnc32)CC1 [Compound 56]
// result < 6.30

// query Complete the entry with pIC50 for CC(C)n1nc(-c2cc3cccc(Cl)c3[nH]2)c2c(N)ncnc21 [Compound 50]
// result < 6.30

// query Complete the entry with pIC50 for Nc1ncnc2c1c(-c1cc3cccc(Cl)c3[nH]1)nn2C1CCOCC1 [Compound 51]
// result < 6.30

// query Complete the entry with pIC50 for CC(=O)N1CCC(n2nc(-c3cc4cc(O)cc(Cl)c4[nH]3)c3c(N)ncnc32)CC1 [Compound 70]
// result < 6.30

###

Target: PI3K δ (Homo sapiens (Human), UniProt O00329)
Sequence (O00329 whole entry, species assumed): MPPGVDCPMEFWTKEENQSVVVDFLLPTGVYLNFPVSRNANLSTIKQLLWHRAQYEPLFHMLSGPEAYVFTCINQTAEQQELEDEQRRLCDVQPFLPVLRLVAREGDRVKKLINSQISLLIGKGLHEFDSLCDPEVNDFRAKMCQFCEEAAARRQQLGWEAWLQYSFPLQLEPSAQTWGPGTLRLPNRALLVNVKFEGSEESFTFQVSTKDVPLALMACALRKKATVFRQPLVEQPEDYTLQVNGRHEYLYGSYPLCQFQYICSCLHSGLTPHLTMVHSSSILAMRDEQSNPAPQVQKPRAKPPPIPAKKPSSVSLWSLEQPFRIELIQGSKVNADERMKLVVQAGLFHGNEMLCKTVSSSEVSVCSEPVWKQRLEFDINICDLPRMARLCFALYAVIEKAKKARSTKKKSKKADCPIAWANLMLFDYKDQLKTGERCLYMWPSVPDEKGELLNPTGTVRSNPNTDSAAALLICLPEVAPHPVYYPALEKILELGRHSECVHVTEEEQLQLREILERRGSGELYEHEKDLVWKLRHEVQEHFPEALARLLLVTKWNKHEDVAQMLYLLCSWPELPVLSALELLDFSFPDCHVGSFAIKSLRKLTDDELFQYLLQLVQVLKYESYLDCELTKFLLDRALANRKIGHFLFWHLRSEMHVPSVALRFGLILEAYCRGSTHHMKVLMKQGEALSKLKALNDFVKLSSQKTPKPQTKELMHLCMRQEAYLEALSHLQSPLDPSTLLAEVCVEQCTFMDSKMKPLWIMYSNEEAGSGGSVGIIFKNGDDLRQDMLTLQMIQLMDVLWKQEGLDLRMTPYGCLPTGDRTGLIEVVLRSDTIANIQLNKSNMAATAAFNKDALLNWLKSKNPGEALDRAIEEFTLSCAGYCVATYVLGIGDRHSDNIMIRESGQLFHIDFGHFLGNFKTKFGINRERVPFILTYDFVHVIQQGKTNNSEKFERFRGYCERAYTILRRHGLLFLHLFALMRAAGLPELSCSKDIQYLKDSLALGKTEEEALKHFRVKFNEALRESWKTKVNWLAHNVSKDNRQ
Sequence (P27986 whole entry partner, species assumed): as the sequence (P27986 whole entry partner, species assumed) above
Test: PI3K δ kinase assay
Type: biochemical
Conditions: Table 2
pIC50: −log10 of the molar value.
Please respond with reported pIC50 for every item in the list.

// query Complete the entry with pIC50 for COc1cccc2cc(-c3nn(C4CCN(C(=O)C5CC5)CC4)c4ncnc(N)c34)[nH]c12 [Compound 66]
// result < 6.30

// query Complete the entry with pIC50 for Nc1ncnc2c1c(-c1cc3cc(O)ccc3[nH]1)nn2C1CCN(C(=O)C2CC2)CC1 [Compound 31]
// result > 6.30

// query Complete the entry with pIC50 for Nc1ncnc2c1c(-c1cc3cccc(O)c3[nH]1)nn2C1CCCC1 [Compound 36]
// result > 6.30

// query Complete the entry with pIC50 for CC(C)n1nc(-c2cc3cc(O)c(Cl)cc3[nH]2)c2c(N)ncnc21 [Compound 32]
// result < 6.30

// query Complete the entry with pIC50 for Nc1ncnc2c1c(-c1cc3cc(O)ccc3[nH]1)nn2Cc1cccnc1 [Compound 38]
// result < 6.30

// query Complete the entry with pIC50 for CC(C)n1nc(-c2cc3c(O)cccc3[nH]2)c2c(N)ncnc21 [Compound 37]
// result > 6.30

// query Complete the entry with pIC50 for CNC(=O)CCn1nc(-c2cc3cc(O)ccc3[nH]2)c2c(N)ncnc21 [Compound 43]
// result < 6.30

// query Complete the entry with pIC50 for Nc1ncnc2c1c(-c1cc3cccc(O)c3[nH]1)nn2C1CCN(C(=O)C2CC2)CC1 [Compound 41]
// result < 6.30

// query Complete the entry with pIC50 for COc1cccc2cc(-c3nn(C4CCOCC4)c4ncnc(N)c34)[nH]c12 [Compound 63]
// result > 7.60

// query Complete the entry with pIC50 for CN1CCN(C2CC(n3nc(-c4cc5cc(O)ccc5[nH]4)c4c(N)ncnc43)C2)CC1 (centres unmarked) [Compound 52]
// result > 6.30

// query Complete the entry with pIC50 for CC(=O)N1CCC(n2nc(-c3cc4cc(O)cc(Cl)c4[nH]3)c3c(N)ncnc32)CC1 [Compound 70]
// result > 7.60

// query Complete the entry with pIC50 for CC(C)N1CCC(n2nc(-c3cc4cccc(O)c4[nH]3)c3c(N)ncnc32)CC1 [Compound 64]
// result > 6.30

// query Complete the entry with pIC50 for Nc1ncnc2c1c(-c1cc3cccc(Cl)c3[nH]1)nn2C1CCOCC1 [Compound 51]
// result > 6.30

// query Complete the entry with pIC50 for Nc1ncnc2c1c(-c1cc3cc(O)ccc3[nH]1)nn2CCN1CCOCC1 [Compound 33]
// result < 6.30

// query Complete the entry with pIC50 for COc1cc(Cl)c2[nH]c(-c3nn(C4CCOCC4)c4ncnc(N)c34)cc2c1 [Compound 67]
// result < 6.30

// query Complete the entry with pIC50 for CC(C)n1nc(-c2cc3cccc(Cl)c3[nH]2)c2c(N)ncnc21 [Compound 50]
// result > 6.30

// query Complete the entry with pIC50 for Nc1ncnc2c1c(-c1cc3cccc(O)c3[nH]1)nn2C1CCOCC1 [Compound 62]
// result > 7.00

// query Complete the entry with pIC50 for Nc1ncnc2c1c(-c1cc3cc(O)ccc3[nH]1)nn2CC(=O)N1CCOCC1 [Compound 34]
// result < 6.30

// query Complete the entry with pIC50 for Nc1ncnc2c1c(-c1cc3c(Cl)cccc3[nH]1)nn2C1CCOCC1 [Compound 48]
// result < 6.30

// query Complete the entry with pIC50 for CNC(=O)Cn1nc(-c2cc3cc(O)ccc3[nH]2)c2c(N)ncnc21 [Compound 35]
// result < 6.30
